Test system: LOX IMVI
Experiment: NCI tumour cell line growth inhibition, 48 h
Active and inactive are the calls of the source. Rule as the data show it: active = GI50 up to about 1.1 µM and inactive = higher.
Outcome codes: label 1 = active, label 0 = inactive

{"molecule": "COc1cc([C@@H]2c3cc4c(cc3[C@@H](Nc3ccc(/N=C\\c5ccc(C(=O)O[C@@H](C(=O)O[C@H]6C[C@@]7(O)[C@@H](OC(=O)c8ccccc8)[C@@H]8[C@]9(OC(C)=O)CO[C@@H]9C[C@H](O)[C@@]8(C)C(=O)[C@H](OC(C)=O)C(=C6C)C7(C)C)[C@@H](NC(=O)c6ccccc6)c6ccccc6)cc5)cc3)[C@H]3COC(=O)[C@H]23)OCO4)cc(OC)c1O", "group": "label 0"}
{"molecule": "O=C(CON1C(=O)c2ccccc2C1=O)c1ccccc1", "group": "label 0"}
{"molecule": "Cc1cc([N+](=O)[O-])ccc1Nc1cccc(Cl)c1C", "group": "label 0"}
{"molecule": "C[C@H](C(=O)N1C(=O)O[C@@H](c2ccccc2)[C@H]1C)[C@H](c1ccccc1)N(Cc1ccccc1)OC(=O)c1ccccc1", "group": "label 0"}
{"molecule": "N=C(N)NS(=O)(=O)c1ccc(Nc2c3ccccc3nc3c(C(=O)Nc4ccc(S(N)(=O)=O)cc4)cccc23)cc1", "group": "label 0"}
{"molecule": "COC(=O)[C@H](CNC(=O)/C=C/c1ccc(OC(C)=O)c(OC(C)=O)c1)NC(=O)/C=C/c1ccc(OC(C)=O)c(OC(C)=O)c1", "group": "label 0"}
{"molecule": "COc1cc2c(cc1O)CN1CCC23C=C[C@@H](O)CC13 (stereo not given in full)", "group": "label 0"}
{"molecule": "COc1ccc(-c2c(C(C)=O)c(C)n(C3OC(COC(C)=O)C(OC(C)=O)C(OC(C)=O)C3OC(C)=O)c(=S)c2C#N)cc1 (stereo not given)", "group": "label 0"}
{"molecule": "COc1ccc(OC2(c3cc(OC)ccc3OC)OC(=O)c3ccccc32)cc1 (stereo not given)", "group": "label 0"}
{"molecule": "CC1CC(N)=C(C#N)C1(C#N)C#N (stereo not given)", "group": "label 0"}
{"molecule": "CC[S+](C)c1ccc(-c2c3nc(c(-c4ccc([S+](C)CC)cc4)c4ccc([nH]4)c(-c4ccc([S+](C)CC)cc4)c4nc(c(-c5ccc([S+](C)CC)cc5)c5ccc2[nH]5)C=C4)C=C3)cc1.[O-][Cl+3]([O-])([O-])[O-].[O-][Cl+3]([O-])([O-])[O-].[O-][Cl+3]([O-])([O-])[O-].[O-][Cl+3]([O-])([O-])[O-] (stereo not given)", "group": "label 0"}
{"molecule": "O=c1c(Br)cc2c(-c3ccccc3)c3cc(Br)c(O)c(Br)c3oc-2c1Br", "group": "label 0"}
{"molecule": "O=C1C(Cl)=C(Nc2ccc(S(=O)(=O)O)cc2)C(=O)c2ccccc21", "group": "label 0"}
{"molecule": "N#CCCC1(CCC#N)CCCCCCCCC(CCC#N)(CCC#N)C(O)C1O (stereo not given)", "group": "label 0"}
{"molecule": "Cc1cn(CC2=NCC(C)(C)CN2)c(=O)[nH]c1=O", "group": "label 0"}
{"molecule": "CCc1cccc(C)c1NC(=O)CC1C(=O)Nc2ccccc2[S+]1[O-] (stereo not given)", "group": "label 0"}
{"molecule": "CC(C)C/C(CC(=O)CCC(=O)Nc1ccccc1[N+](=O)[O-])=N\\NC(=O)c1cc2ccccc2cc1O", "group": "label 0"}
{"molecule": "CSc1ncnc2c1ncn2CCC(=O)OC(C)(C)C", "group": "label 0"}
{"molecule": "COC(=O)c1ccc(-c2nc(C#N)c(N)o2)cc1", "group": "label 0"}
{"molecule": "C[C@@H](CO)C1=CC(C#C[Si](C)(C)C)N(C(=O)Oc2ccccc2)c2ccccc21 (stereo not given in full)", "group": "label 0"}
{"molecule": "O=C1/C(=N\\O)S(=O)(=O)c2ccccc21", "group": "label 0"}
{"molecule": "COc1cccc(N(CN2C(=O)CCC2OC)C(C)=O)c1 (stereo not given)", "group": "label 0"}
{"molecule": "O=S1(=O)OCCCOS(=O)(=O)C1(Br)Br", "group": "label 0"}
{"molecule": "CC1=C/C(=C(/c2ccc(O)c(C)c2)c2ccccc2C(=O)O)C=CC1=O", "group": "label 0"}
{"molecule": "COC1=CC(=O)c2c(cc3c(c2O)-c2c(OC)cc4cc5c(c(O)c4c2OC(=O)CC(C)(O)C3)C(=O)CC(C)(O)C5)C1=O (stereo not given)", "group": "label 0"}
{"molecule": "O=C1CC(NC(=O)C(F)(F)F)c2c(Br)sc(N3CCC(c4ccccc4)CC3)c21 (stereo not given)", "group": "label 0"}
{"molecule": "CC(C)CC(NC=O)C(=O)NC(Cc1ccccc1)NC(=O)CNC(=O)C(C)NC(=O)C(N)Cc1ccc(O)cc1 (stereo not given)", "group": "label 0"}
{"molecule": "O=c1[nH]c2cc([N+](=O)[O-])c(N/N=C/c3ccc(Cl)cc3Cl)c([N+](=O)[O-])c2[nH]1", "group": "label 0"}
{"molecule": "O=c1c2c(no[n+]2[O-])c2ccccc2n1-c1ccccc1", "group": "label 0"}
{"molecule": "CC/C(=C\\c1ccc(Cl)c(Cl)c1)[N+](=O)[O-]", "group": "label 1"}
{"molecule": "CC(=O)N1c2ccccc2[C@H]2CCc3c([nH]c4ccccc34)[C@H]21", "group": "label 0"}
{"molecule": "CCN(CC)C(=O)CC12CCCCC1=Nc1ccccc12 (stereo not given)", "group": "label 0"}
{"molecule": "O=C1C(c2c(O)[nH]c3ccc(Br)cc23)=Nc2ccc(Br)cc21", "group": "label 0"}
{"molecule": "O=C1/C(=C\\c2cccs2)Oc2ccccc21", "group": "label 0"}
{"molecule": "c1ccc(CCc2cccnc2)nc1", "group": "label 0"}

* * *

Test system: MDA-MB-231
Assay: NCI tumour cell line growth inhibition, 48 h
Activity calls are given as the source filed them. No stated cut-off is given here; in the data, active = GI50 up to about 1.1 µM and inactive = higher.

{"compound": "CCN(CC)CCCNc1nncc2cc3c([nH]c4ccccc43)c(C)c12", "GI50": "4.65 µM (inactive)"}
{"compound": "CC(CNC(=O)c1ccccc1)(CNC(=O)c1ccccc1)[N+](=O)[O-]", "GI50": "> 100 µM (inactive)"}
{"compound": "[O-][S+](CCc1ccccc1)Nc1ccccc1 (stereo not given)", "GI50": "> 100 µM (inactive)"}
{"compound": "CC1(C)c2ccccc2C(O)C12CCC(=O)CC2 (stereo not given)", "GI50": "> 100 µM (inactive)"}
{"compound": "COc1ccc(C2C3=C(COC3=O)OC(C)(C)Oc3cc4c(cc32)OCO4)cc1 (stereo not given)", "GI50": "18.6 µM (inactive)"}
{"compound": "CCc1n[nH]c(=O)n1N=C(c1ccccc1)c1ccccc1", "GI50": "> 100 µM (inactive)"}
{"compound": "CC(C)n1c2c([n+](C)c1/C=C/c1ccccc1)C(=O)c1ccccc1C2=O", "GI50": "0.166 µM (active)"}
{"compound": "O=C(N1CCN(c2ccccc2)CC1)N(C(=O)C1(c2ccc(Cl)cc2)CCCC1)S(=O)(=O)c1ccccc1", "GI50": "26.6 µM (inactive)"}
{"compound": "CSc1ncnc2c1ncn2CCC(=O)OC(C)(C)C", "GI50": "> 100 µM (inactive)"}
{"compound": "CCCCCCCCCCCCOCC1(COCCCCCCCCCCCC)COC(c2ccc(N)cc2)OC1", "GI50": "> 100 µM (inactive)"}
{"compound": "O=C(O)c1cc2ccccc2c(/N=N/c2c([N+](=O)[O-])cc([N+](=O)[O-])cc2S(=O)(=O)O)c1O", "GI50": "> 100 µM (inactive)"}
{"compound": "CC(C)CC(NC=O)C(=O)NC(Cc1ccccc1)NC(=O)CNC(=O)C(C)NC(=O)C(N)Cc1ccc(O)cc1 (stereo not given)", "GI50": "> 100 µM (inactive)"}
{"compound": "CC1CC(N)=C(C#N)C1(C#N)C#N (stereo not given)", "GI50": "> 100 µM (inactive)"}
{"compound": "CCOP(=O)(OCC)C(c1ccccc1)N(C(=O)NC(F)(F)F)c1ccc(C)cc1 (stereo not given)", "GI50": "> 100 µM (inactive)"}
{"compound": "O=C(NCCC1CN(S(=O)(=O)C(F)(F)F)c2ccccc21)OCc1ccccc1 (stereo not given)", "GI50": "> 100 µM (inactive)"}

Values were extracted from ChEMBL document CHEMBL1201862.
